molecular target: P. falciparum apicoplast DNA polymerase (Pf-apPOL) (Plasmodium falciparum); assay: Fluorescence-based high-throughput DNA polymerase assay (molecular beacon), primary screen and dose-response; assay type: biochemical; conditions: DRC-2; 5'; conc 2.5
Sequence (Q8ILY1 entry or part of it): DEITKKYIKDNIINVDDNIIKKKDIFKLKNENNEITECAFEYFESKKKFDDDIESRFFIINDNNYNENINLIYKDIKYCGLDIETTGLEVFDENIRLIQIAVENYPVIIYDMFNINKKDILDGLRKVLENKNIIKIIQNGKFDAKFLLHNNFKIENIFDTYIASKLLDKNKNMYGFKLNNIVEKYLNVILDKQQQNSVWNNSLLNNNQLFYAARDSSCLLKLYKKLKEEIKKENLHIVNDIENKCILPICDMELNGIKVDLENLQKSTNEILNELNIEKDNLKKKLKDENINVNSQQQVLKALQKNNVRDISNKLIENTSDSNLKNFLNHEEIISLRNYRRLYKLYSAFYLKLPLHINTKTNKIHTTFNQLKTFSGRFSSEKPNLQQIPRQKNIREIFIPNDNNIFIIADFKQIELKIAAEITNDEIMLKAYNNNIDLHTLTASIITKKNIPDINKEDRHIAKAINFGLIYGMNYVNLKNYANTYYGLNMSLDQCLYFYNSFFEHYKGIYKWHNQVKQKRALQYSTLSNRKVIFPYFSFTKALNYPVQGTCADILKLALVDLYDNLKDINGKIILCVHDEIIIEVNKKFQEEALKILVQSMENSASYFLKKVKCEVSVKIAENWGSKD
Quick list: % inhibition Apo pol 5' per entry.
Just the number please, in %, no unit attached.

Task: Give P. falciparum apicoplast DNA polymerase (Pf-apPOL) (Plasmodium falciparum) % inhibition Apo pol 5' for O=C(O)c1ccc(COc2cc([N+](=O)[O-])cc3cccnc23)cc1 [KU0058403]
Result: 17

Task: Give P. falciparum apicoplast DNA polymerase (Pf-apPOL) (Plasmodium falciparum) % inhibition Apo pol 5' for CCOc1nc2cccc(C(=O)OC(C)OC(=O)OC3CCCCC3)c2n1Cc1ccc(-c2ccccc2-c2nnn[nH]2)cc1 (stereo not shown) [Molecule 94]
Result: 8

Task: Give P. falciparum apicoplast DNA polymerase (Pf-apPOL) (Plasmodium falciparum) % inhibition Apo pol 5' for Cc1ccccc1NC(=O)Cn1ccc2c(=O)[nH]ccc21 [Molecule 50, O=C(Cn1ccc2c1cc[nH]c2=O)Nc1ccc(cc1)C]
Result: 8

Task: Give P. falciparum apicoplast DNA polymerase (Pf-apPOL) (Plasmodium falciparum) % inhibition Apo pol 5' for C=CC1=C(C)c2cc3[nH]c(cc4nc(cc5[nH]c(cc1n2)c(C)c5CCC(=O)O)C(CCC(=O)O)=C4C)c(C)c3C=C [Molecule 91]
Result: 48

Task: Give P. falciparum apicoplast DNA polymerase (Pf-apPOL) (Plasmodium falciparum) % inhibition Apo pol 5' for CC(C)CCNC(=O)c1cnn2c(O)cc(CSc3ccc(Cl)cc3)nc12 [Molecule 101]
Result: -1.9

Task: Give P. falciparum apicoplast DNA polymerase (Pf-apPOL) (Plasmodium falciparum) % inhibition Apo pol 5' for C=CCOc1c(Br)cc(Br)cc1/C=C1\SC(=N)NC1=O [KU0051640]
Result: 11

Taken from paper PMC9090415.
